Each item that follows carries a reported Tm.
assay_details: melting temperature; fluorescence melt of hairpins on a sequencing array, two-state fit, raised by 9.35 °C to match UV melts
condition: sodium 0.088 M
reported_endpoint: Tm (°C)

[[record]]
chain_sequence = "GAATTCCGAAAGGACTTC (((.(((....))).)))"
uom = "°C"
data_value = 36.1

[[record]]
chain_sequence = "GATCACGTGGGTGATC ((((((....))))))"
uom = "°C"
data_value = 57.1

[[record]]
chain_sequence = "GTGAGCGAAAGCTTTCAC ((((((....)))..)))"
uom = "°C"
data_value = 32.3

[[record]]
chain_sequence = "GTCTTACGAAAGTAGGAC (((.(((....))).)))"
uom = "°C"
data_value = 48.9

[[record]]
chain_sequence = "GGGGAGGAAACTCCCC ((((((....))))))"
uom = "°C"
data_value = 66.3

[[record]]
chain_sequence = "GACCACGAAAGTGGGGTC ((((((....)))..)))"
uom = "°C"
data_value = 61.2

[[record]]
chain_sequence = "GCCATGCGAAAGCGTTGC ((.(.((....)).).))"
uom = "°C"
data_value = 43.6

[[record]]
chain_sequence = "GCAAAGCGAAAGCCTGGC ((.(.((....)).).))"
uom = "°C"
data_value = 35

[[record]]
chain_sequence = "GCGGTGCGAAAGCCCTGC ((.(.((....)).).))"
uom = "°C"
data_value = 49.5

[[record]]
chain_sequence = "GGATAGGCGAAAGCCTCC (((..(((....))))))"
uom = "°C"
data_value = 36.6

[[record]]
chain_sequence = "GGGTGGGGAAACCTGCCC (((..((....))..)))"
uom = "°C"
data_value = 49.7

[[record]]
chain_sequence = "GATCATCCGAATGATC ((((((....))))))"
uom = "°C"
data_value = 47.2

[[record]]
chain_sequence = "CTCAGGAAACTGAG (((((....)))))"
uom = "°C"
data_value = 46.3

[[record]]
chain_sequence = "GGACACGGAAACGTGCCC ((.((((....)))).))"
uom = "°C"
data_value = 54.5

[[record]]
chain_sequence = "GAGGTCGGAAACGGCTTC ((.(.((....)).).))"
uom = "°C"
data_value = 36.1

[[record]]
chain_sequence = "GCAAATGGAAACATTTGC (((((((....)))))))"
uom = "°C"
data_value = 61.8

[[record]]
chain_sequence = "GATCCTGCGCAGGATC ((((((....))))))"
uom = "°C"
data_value = 59.3

[[record]]
chain_sequence = "GGTAGGCGAAAGCCACC (((.(((....))))))"
uom = "°C"
data_value = 58.2

[[record]]
chain_sequence = "GTGTTTGGAAACGAACAC (((((.(....).)))))"
uom = "°C"
data_value = 49.5

[[record]]
chain_sequence = "GATCTTTACCAAGATC ((((((....))))))"
uom = "°C"
data_value = 42

[[record]]
chain_sequence = "GCTTATGGAAACATAGGC ((.((((....)))).))"
uom = "°C"
data_value = 41.6

[[record]]
chain_sequence = "GGTGTTGCGAAAGCAACC (((..(((....))))))"
uom = "°C"
data_value = 49.5

[[record]]
chain_sequence = "GATCAATTTCTTGATC ((((((....))))))"
uom = "°C"
data_value = 43.3

[[record]]
chain_sequence = "GCGAACGGAAACATCCGC (((.(.(....).).)))"
uom = "°C"
data_value = 20.9

[[record]]
chain_sequence = "GGCTACGAAAGTAGGCC ((((((....))).)))"
uom = "°C"
data_value = 57.6

[[record]]
chain_sequence = "GGATCGCGAAAGCGTTCC (((.(((....))).)))"
uom = "°C"
data_value = 57.8

[[record]]
chain_sequence = "GCAGCTGGAAACGGCTGC (((((.(....).)))))"
uom = "°C"
data_value = 60.2

[[record]]
chain_sequence = "GATCCTCTCAGGATC ((((((...))))))"
uom = "°C"
data_value = 55

[[record]]
chain_sequence = "GGTTTCGAAAGAAAACC ((((((....))).)))"
uom = "°C"
data_value = 46.4

[[record]]
chain_sequence = "GTCGGGGGAAACTCCGAC (((((.(....).)))))"
uom = "°C"
data_value = 57.6

[[record]]
chain_sequence = "GATCTCGCTCGAGATC ((((((....))))))"
uom = "°C"
data_value = 57.5

[[record]]
chain_sequence = "GGATTGGGAAACCAATCC (((((((....)))))))"
uom = "°C"
data_value = 60.2

[[record]]
chain_sequence = "GAGTCCGAAAGGAGCTC ((((((....))).)))"
uom = "°C"
data_value = 47.2

[[record]]
chain_sequence = "GCCCAGCGAAAGCAGAGC ((.(.((....)).).))"
uom = "°C"
data_value = 41.2

[[record]]
chain_sequence = "GAGCTTGGAAACAAGCTC (((((((....)))))))"
uom = "°C"
data_value = 67.8

[[record]]
chain_sequence = "GATCACCGGCGTGATC ((((((....))))))"
uom = "°C"
data_value = 54.7

[[record]]
chain_sequence = "GGACACGAAAGTGGGTCC ((((((....)))..)))"
uom = "°C"
data_value = 48.7

[[record]]
chain_sequence = "GCAGCGCGAAAGCTCGGC ((.(.((....)).).))"
uom = "°C"
data_value = 42.9

[[record]]
chain_sequence = "GTCGCAGGAAACCGCGAC (((((.(....).)))))"
uom = "°C"
data_value = 58.9

[[record]]
chain_sequence = "GTATACGAAAGTACTTAC ((((((....)))..)))"
uom = "°C"
data_value = 31.5

[[record]]
chain_sequence = "GCCGTGCGAAAGCTAGGC (((..((....))..)))"
uom = "°C"
data_value = 66.9

[[record]]
chain_sequence = "GTTATCGAAAGATAAC ((((((....))))))"
uom = "°C"
data_value = 53.1

[[record]]
chain_sequence = "GCCATCGAAAGATTGGC ((((((....))).)))"
uom = "°C"
data_value = 50.7

[[record]]
chain_sequence = "GCGATAGGAAACTGTCGC ((((.((....)).))))"
uom = "°C"
data_value = 54.5

[[record]]
chain_sequence = "GTAGACGAAAGTCGTTAC ((((((....)))..)))"
uom = "°C"
data_value = 34.6

[[record]]
chain_sequence = "GTCCGGCCGAAAGGCGAC (((..(((....))))))"
uom = "°C"
data_value = 41.7

[[record]]
chain_sequence = "GTACAGCCGAAAGGCTAC (((..(((....))))))"
uom = "°C"
data_value = 27.2

[[record]]
chain_sequence = "GATCATGGATATGATC ((((((....))))))"
uom = "°C"
data_value = 54.1

[[record]]
chain_sequence = "GAATGCGAAAGCATATTC ((((((....)))..)))"
uom = "°C"
data_value = 33

[[record]]
chain_sequence = "GCGAGAGGAAACTCCCGC (((.(((....))).)))"
uom = "°C"
data_value = 48.5

